Exercise: state measured pIC50 for each of the compounds provided.
Tested on: Plasmodium falciparum
Procedure summary: Antimalarial activity against Plasmodium falciparum
Format: functional, organism-based
Condition context: Plasmodium falciparum
Numbers only, as −log10 of the molar value.

1. Cl.Cl.Nc1ccc(SC[C@@H]2CO[C@](CCc3ccc(Cl)cc3)(Cn3ccnc3)O2)cc1 [AZALANSTAT DIHYDROCHLORIDE]
6.10
2. Cl.Cl.Nc1ccc(OC[C@@H]2CO[C@@](CCc3ccc(Cl)cc3)(Cn3ccnc3)O2)cc1
5.89
3. Cl.Oc1ccc(OC[C@@H]2CO[C@@](CCc3ccc(Cl)cc3)(Cn3ccnc3)O2)cc1
5.96

Prompt: State, in one line, measured pIC50 of "Cl.Cl.Nc1cccc(SC[C@H]2CO[C@@](CCc3ccc(Cl)cc3)(Cn3ccnc3)O2)c1"
Completion: 5.92
